Value source: paper PMC9407945

target: SARS-CoV-2 spike ectodomain (S-ecto), Wuhan-hu-1 strain, 2P (SARS-CoV-2, Wuhan-hu-1, UniProt P0DTC2, 2P mutation at residues 986 and 987 | 2P mutation at residues 986 and 987, biotin (NHS-sulfo-LC-Biotin, EZ-link biotinylation kit)); experiment: BLI; settings: both partners purified
pKd: −log10 of the molar value.
The reader will find reported pKd values listed item by item below.
MEASUREMENT_KIND: pKd

BINDER	EXPERIMENTAL_RESULT
humanized SW186 H2L3 (antibody, V domains shown) VH: QVQLVQSGAEVKKPGSSVKVSCKASGVAFSSYWMNWVRQAPGQGLEWIGQIYPGDGDTNYNGKFKGRVTITADKSTSTAYMELSSLRSEDTAVYFCARGFIATVEETMDYWGQGTLVTVSS VL: DIQMTQSPSSLSASVGDRVTITCRASQDISNYLNWYQQKPGKAPKLLIYYTSRLHSGVPSRFSGSGSGTDYTLTISSLQPEDFATYFCQQSHTLPWTFGGGTKLEIK	8.43
humanized SW186 H3L3 (antibody, V domains shown) VH: QVQLVQSGAEVKKPGSSVKVSCKASGVAFSSYWMNWVRQAPGQGLEWIGQIYPGDGDTNYNGKFKGRATITADKSTSTAYMELSSLRSEDTAVYFCARGFIATVEETMDYWGQGTLVTVSS VL: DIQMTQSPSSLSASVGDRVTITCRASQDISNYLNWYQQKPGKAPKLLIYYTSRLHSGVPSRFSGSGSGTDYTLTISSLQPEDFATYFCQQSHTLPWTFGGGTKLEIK	8.24
humanized SW186 H4L1 (antibody, V domains shown) VH: QVQLVQSGAEVKKPGSSVKVSCKASGVAFSSYWMNWVKQAPGQGLEWIGQIYPGDGDTNYNGKFKGKATITADKSTSTAYMELSSLRSEDTAVYFCARGFIATVEETMDYWGQGTLVTVSS VL: DIQMTQSPSSLSASVGDRVTITCRASQDISNYLNWYQQKPGKAPKLLIYYTSRLHSGVPSRFSGSGSGTDFTLTISSLQPEDFATYYCQQSHTLPWTFGGGTKLEIK	8.38
